testTarget: PI3Kα (p110[H1047R]/p85) kinase (Homo sapiens, UniProt P42336, H1047R)
Sequence (P42336 whole entry H1047R): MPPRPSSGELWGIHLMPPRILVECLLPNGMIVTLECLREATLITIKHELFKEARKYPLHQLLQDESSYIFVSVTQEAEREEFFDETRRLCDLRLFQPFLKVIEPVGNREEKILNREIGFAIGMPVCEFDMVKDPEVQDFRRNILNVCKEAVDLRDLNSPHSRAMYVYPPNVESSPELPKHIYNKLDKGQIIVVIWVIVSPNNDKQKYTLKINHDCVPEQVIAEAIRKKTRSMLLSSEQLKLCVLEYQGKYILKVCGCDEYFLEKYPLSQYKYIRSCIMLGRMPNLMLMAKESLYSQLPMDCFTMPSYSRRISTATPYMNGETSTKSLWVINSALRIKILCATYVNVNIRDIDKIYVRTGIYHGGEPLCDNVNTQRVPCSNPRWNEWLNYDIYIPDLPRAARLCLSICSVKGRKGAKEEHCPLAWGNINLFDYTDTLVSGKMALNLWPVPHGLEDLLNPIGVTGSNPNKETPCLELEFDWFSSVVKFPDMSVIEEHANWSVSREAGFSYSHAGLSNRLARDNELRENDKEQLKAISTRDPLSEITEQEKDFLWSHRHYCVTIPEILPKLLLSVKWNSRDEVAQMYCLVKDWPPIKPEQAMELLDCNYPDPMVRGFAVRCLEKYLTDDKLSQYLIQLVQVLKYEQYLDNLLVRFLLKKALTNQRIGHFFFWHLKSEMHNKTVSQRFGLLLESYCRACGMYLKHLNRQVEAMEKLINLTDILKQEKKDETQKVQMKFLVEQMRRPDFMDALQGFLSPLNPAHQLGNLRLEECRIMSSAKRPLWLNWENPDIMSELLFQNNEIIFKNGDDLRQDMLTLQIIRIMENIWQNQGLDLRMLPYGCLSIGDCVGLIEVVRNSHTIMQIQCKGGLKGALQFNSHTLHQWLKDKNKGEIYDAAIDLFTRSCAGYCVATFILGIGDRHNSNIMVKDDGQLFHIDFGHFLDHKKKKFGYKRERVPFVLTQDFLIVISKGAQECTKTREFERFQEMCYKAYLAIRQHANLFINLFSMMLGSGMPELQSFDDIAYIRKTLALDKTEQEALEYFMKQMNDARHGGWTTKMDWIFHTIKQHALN
Sequence (P27986 whole entry partner): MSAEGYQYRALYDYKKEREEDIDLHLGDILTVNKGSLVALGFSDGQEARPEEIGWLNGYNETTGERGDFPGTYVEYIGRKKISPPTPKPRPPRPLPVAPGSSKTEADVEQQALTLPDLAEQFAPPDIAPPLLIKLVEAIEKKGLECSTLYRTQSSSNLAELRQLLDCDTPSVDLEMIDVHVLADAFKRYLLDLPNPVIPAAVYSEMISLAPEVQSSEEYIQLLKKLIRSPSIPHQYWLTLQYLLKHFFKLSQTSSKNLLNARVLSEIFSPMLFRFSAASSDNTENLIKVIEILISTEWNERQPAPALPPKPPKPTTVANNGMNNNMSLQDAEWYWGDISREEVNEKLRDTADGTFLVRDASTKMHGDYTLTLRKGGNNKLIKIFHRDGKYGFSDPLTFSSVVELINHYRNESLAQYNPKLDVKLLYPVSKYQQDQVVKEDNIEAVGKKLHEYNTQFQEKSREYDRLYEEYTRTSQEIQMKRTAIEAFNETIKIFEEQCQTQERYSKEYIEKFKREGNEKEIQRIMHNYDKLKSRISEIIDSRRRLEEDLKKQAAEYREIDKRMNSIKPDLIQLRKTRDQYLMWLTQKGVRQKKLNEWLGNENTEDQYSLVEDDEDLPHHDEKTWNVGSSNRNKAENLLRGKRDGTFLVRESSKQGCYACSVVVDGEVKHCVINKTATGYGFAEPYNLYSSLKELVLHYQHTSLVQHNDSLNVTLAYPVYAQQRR
protocolNotes: PI3Kα (p110[H1047R]/p85) kinase ADP-Glo Assay
conditionDetails: 25 uM ATP

{"columns": ["compound", "IC50 / nM"],
 "data": [
  ["COC1(c2ccc(-c3cc4c(C(C)Nc5ccccc5C(=O)O)cc(C)cc4c(=O)n3C)cc2)CCOCC1 (stereo not drawn)", 729],
  ["Cc1cc(C(C)Nc2ccccc2C(=O)O)c2cc(-c3cnc(O)nc3)n(C)c(=O)c2c1 (stereo not drawn)", 1100],
  ["Cc1cc(C(C)Nc2ccccc2C(=O)O)c2cc(-c3ccc(N4CCC(C)(O)CC4)nc3)n(C)c(=O)c2c1 (stereo not drawn)", 1070],
  ["Cc1cc(C(C)Nc2c(C(=O)O)sc3ccccc23)c2cc(-c3ccccc3)n(C)c(=O)c2c1 (stereo not drawn)", 829],
  ["Cc1cc(C(C)Nc2cccnc2C(=O)O)c2cc(-c3ccc(F)cc3)n(C)c(=O)c2c1 (stereo not drawn)", 1050],
  ["Cc1cc(C(C)Nc2ccccc2C(=O)O)c2cc(-c3ccc(F)cc3)n(C3CCOCC3)c(=O)c2c1 (stereo not drawn)", 910]
]}
